Exercise: for every item that follows, state its recorded TGI.
- Test system: BT-549 breast
- protocol: NCI tumour cell line growth inhibition, 48 h

Consider the worked cases shown below.
| compound | TGI |
| --- | --- |
| COC1/C=C/C(C)C(OC)CC(O)/C=C/C(C)C(C(C)C(OC)C(C)CCC(=O)C(C)C(C/C=C/N(C)C=O)OC)OC(=O)/C=C/C=C(\C)CC(OC)CC2=CC(=O)O[C@@H](C(C)C(OC)C1)[C@H]2O (some centres undefined) | 0.498 µM |
| O=C1OC(c2ccccc2)=N/C1=C\c1ccc(F)cc1 | > 100 µM |
| C[C@H]1CC[C@@H]2[C@@H](C)C[C@H]3[C@@H]4C(C)(C)OC(=O)[C@]4(C)C(=O)[C@@]23C1=O | > 100 µM |

Required: TGI, one value per compound below.
1. N=C1S/C(=C/c2ccc(-c3ccc4c(c3)C(=O)NC4=O)o2)C(=O)N1c1ccc(Br)cc1
2. COC(=O)c1c2c(c3[nH]c4ccccc4c3c1C(=O)OC)C(=O)C1=C(C2=O)C2(Cl)C(Cl)C(Cl)C1(Cl)C2(Cl)Cl (centres undefined)
3. CC(C)(C)N/N=C(\C(=O)Nc1ccc([N+](=O)[O-])cc1[N+](=O)[O-])c1nc2ccc([N+](=O)[O-])cc2[nH]c1=O
4. O=C1CCC(C(=O)O)C2=C1CCCC2 (centres undefined)
5. Cc1ccc(C)c(COc2cc(NC(=O)c3ccc4c(c3)OCO4)ccc2N(C)S(C)(=O)=O)c1
6. COC(=O)C(=O)C(C(=O)OC)C(=O)C(=O)Nc1ccccc1C(N)=O (centres undefined)

1: 56 µM; 2: 4.34 µM; 3: > 100 µM; 4: > 100 µM; 5: > 100 µM; 6: > 100 µM
